Test system: HS 578T breast
assay_procedure: NCI-60 one-dose screen, 48 h (100 = growth as untreated, 0 = no growth, -100 = all killed)
measurement_parameters: 10 µM unless noted
The panel holds about 83,000 compounds, 20% with a hit somewhere; the sample as a whole holds those more often. Activity calls are given as the source filed them. How the source made its calls: active means growth percent below 10; inactive means the rest.

>  <compound>
O=[N+]([O-])CC(O)c1ccccc1 (stereo unspecified)

>  <growth>
125% (inactive)

$$$$
>  <compound>
CCCCCCN(CCCCCC)CCCNc1nccc2ccccc12

>  <growth>
12.4% (inactive)

$$$$
>  <compound>
CCCCCCCCc1cc(Cl)c(O)c(Cl)c1

>  <growth>
98.7% (inactive)

$$$$
>  <compound>
COC1=CC(=O)c2c(O)c3c(c(O)c2C1=O)CC(C)(O)OC3 (stereo unspecified)

>  <growth>
67.2% (inactive)

$$$$
>  <compound>
Oc1ccc(Nc2ccc3ccccc3c2)cc1

>  <growth>
87.6% (inactive)

$$$$
>  <compound>
CCOC(=O)C1=C(C(=O)c2ccccc2)C(c2cccc([N+](=O)[O-])c2)C(C(=O)c2ccccc2)=C(C(=O)OCC)N1

>  <growth>
90.1% (inactive)

$$$$
>  <compound>
Cc1nn(CCO)c(C)c1N=[N+]([O-])c1c(C)nn(CCO)c1C

>  <growth>
103% (inactive)

$$$$
>  <compound>
Cc1ccc2cccc(OC(=O)Nc3cccc(C(F)(F)F)c3)c2n1

>  <growth>
100% (inactive)

$$$$
>  <compound>
CC1(C)OC2C(COC(c3ccccc3)(c3ccccc3)c3ccccc3)OC(c3c[nH]c4c(N)ncnc34)C2O1 (stereo unspecified)

>  <growth>
77.5% (inactive)

$$$$
>  <compound>
O=C1C=CC(=O)c2c(O)c(CO)c(CO)c(O)c21

>  <growth>
113% (inactive)

$$$$
>  <compound>
OC(c1cc2ccc(C(F)(F)F)cc2c2cc(C(F)(F)F)ccc12)C1CCCCN1 (stereo unspecified)

>  <growth>
-44.2% (active)

$$$$
>  <compound>
Oc1c(Cl)cc(Cl)cc1C=NCC1CCC(CN=Cc2cc(Cl)cc(Cl)c2O)CC1 (stereo unspecified)

>  <growth>
92.7% (inactive)

$$$$
>  <compound>
CCCCOS(=O)(=O)c1ccccc1

>  <growth>
107% (inactive)

$$$$
>  <compound>
CN(C)CCN(C)CC(C)(C)C(=O)/C=C/c1ccc(Cl)c(Cl)c1

>  <growth>
-39.5% [100 µM] (active)

$$$$
>  <compound>
CCN1CCCC(Nc2cc(C)nc(/N=C(/N)Nc3ccc(Cl)c(Cl)c3)n2)C1 (stereo unspecified)

>  <growth>
-37.8% (active)

$$$$
>  <compound>
N#CCc1cccc2ccccc12

>  <growth>
122% (inactive)

$$$$

----------
System: A498 renal
assay_procedure: NCI-60 one-dose screen, 48 h
measurement_parameters: 10 µM unless noted
The panel holds about 83,000 compounds, 20% with a hit somewhere; the sample as a whole holds those more often. Calls of active or inactive are those of the source. The calls were made as follows: active = growth percent below 10; inactive = the rest.
Outcome codes: True = active, False = inactive

>  <compound>
O=C(CCl)N(c1ccccc1)c1ccccc1

>  <assigned_label>
False

$$$$
>  <compound>
COc1ccc2c(c1OC)OCC(CN(C)C)C2=O (stereo unspecified)

>  <assigned_label>
False

$$$$
>  <compound>
O=C(C[P+](c1ccccc1)(c1ccccc1)c1ccccc1)c1ccccc1

>  <assigned_label>
False

$$$$
>  <compound>
CCc1cccc(CC)c1N1C(=O)C=CC1=O

>  <assigned_label>
False

$$$$
>  <compound>
CCC[CH2][Sn]1([CH2]CCC)[O]C2C(CO)OC(n3ccc(N)nc3=O)C2[O]1 (stereo unspecified)

>  <assigned_label>
True

$$$$
>  <compound>
CCCN(CCC)C(=O)c1ccc(C)cc1

>  <assigned_label>
False

$$$$
>  <compound>
N#Cc1c2ccccc2nc2ccccc12

>  <assigned_label>
False

$$$$
>  <compound>
CCCc1cc(=O)oc2c3c(c4c(c12)OC(C)(C)CC4)OC(C)[C@H](C)[C@@H]3O (stereo partly specified)

>  <assigned_label>
False

$$$$
>  <compound>
CC(C)c1ccc(C(=O)OC2CCCC2)cc1

>  <assigned_label>
False

$$$$
>  <compound>
CCSc1nc2ccccc2o1

>  <assigned_label>
False

$$$$
>  <compound>
CCOC(=O)c1c(C)[nH]c2ccc(O)cc12

>  <assigned_label>
False

$$$$
>  <compound>
CCCCCCCCCCCC[n+]1ccc2ccccc2c1

>  <assigned_label>
False

$$$$
>  <compound>
c1ccc(-c2cccc(-c3ccccn3)n2)nc1

>  <assigned_label>
False

$$$$
>  <compound>
Oc1cc(Cl)ccc1Cc1ccc(Cl)cc1O

>  <assigned_label>
False

$$$$
>  <compound>
CCOc1ccc(Nc2nc3c(s2)C(=O)c2ccccc2C3=O)cc1

>  <assigned_label>
False

$$$$
>  <compound>
O=Nc1ccc2ccccc2c1O

>  <assigned_label>
False

$$$$
>  <compound>
NNc1cccc([N+](=O)[O-])c1

>  <assigned_label>
False

$$$$
>  <compound>
CN(C)CCSC1=Nc2ccc(Cl)cc2C(c2ccccc2Cl)N(C)C1 (stereo unspecified)

>  <assigned_label>
False

$$$$
>  <compound>
O=C(c1ccccc1)N(CCCl)C(=O)N(CCCl)C(=O)c1ccccc1

>  <assigned_label>
False

$$$$
>  <compound>
O=C(Cc1nc2cc(Cl)c(Cl)cc2nc1CC(=O)c1cccnc1)c1cccnc1

>  <assigned_label>
False

$$$$
>  <compound>
S=c1[nH]c2cc(Cl)ccc2s1

>  <assigned_label>
False

$$$$
>  <compound>
O=C(/C=C/c1ccccc1)c1ccccc1O

>  <assigned_label>
False

$$$$
>  <compound>
COc1cc(OC)c(/C=C/c2c3ccccc3cc[n+]2C)c(OC)c1

>  <assigned_label>
False

$$$$
>  <compound>
CC(=O)c1ccc2c(c1)CCc1ccccc1-2

>  <assigned_label>
False

$$$$
>  <compound>
CC(=O)C1Cc2ccccc2C1=O (stereo unspecified)

>  <assigned_label>
False

$$$$
>  <compound>
O=C(Cc1ccccc1)C(F)(F)F

>  <assigned_label>
False

$$$$
>  <compound>
Oc1ccc(Cl)cc1Cc1cc(Cl)ccc1O

>  <assigned_label>
False

$$$$
>  <compound>
Cc1cc2cccnc2c2ncccc12

>  <assigned_label>
False

$$$$
>  <compound>
CCOC(=O)NC(/C=C/c1ccccc1)NC(=O)OCC

>  <assigned_label>
False

$$$$
>  <compound>
CSc1nc(C)c(C(=O)CCN2CCN(c3ccccn3)CC2)s1

>  <assigned_label>
False

$$$$
>  <compound>
N#CC(I)CS(=O)(=O)c1ccccc1 (stereo unspecified)

>  <assigned_label>
False

$$$$
>  <compound>
CCC(C)(O)Cc1ccc(Cl)cc1 (stereo unspecified)

>  <assigned_label>
False

$$$$
>  <compound>
O=[n+]1c2ccccc2n([O-])c2cc(Cl)ccc21

>  <assigned_label>
False

$$$$
>  <compound>
N#CC1c2ccccc2C=CN1C(=O)CCCl (stereo unspecified)

>  <assigned_label>
False

$$$$
>  <compound>
O=C1C=C(Cl)C(=O)c2ccccc21

>  <assigned_label>
False

$$$$
>  <compound>
Oc1c(Cl)cc(Cl)cc1C=NCC1CCC(CN=Cc2cc(Cl)cc(Cl)c2O)CC1 (stereo unspecified)

>  <assigned_label>
False

$$$$
>  <compound>
CC1(C)OCC(COC(c2ccccc2)(c2ccccc2)c2ccccc2)O1 (stereo unspecified)

>  <assigned_label>
False

$$$$
>  <compound>
OC(c1cc(C23CC4CC(CC(C4)C2)C3)nc2c(Cl)cc(Cl)cc12)C1CCCCN1 (stereo unspecified)

>  <assigned_label>
True

$$$$
>  <compound>
Cc1nc([N+](=O)[O-])c(Sc2nncc(-c3ccccc3)n2)n1C

>  <assigned_label>
False

$$$$
>  <compound>
COc1cc(/C=C2\SC(=S)N(/C=C/c3nc4ccccc4[nH]c3=O)C2=O)cc(OC)c1OC

>  <assigned_label>
False

$$$$
>  <compound>
Nc1ccc(-c2ccc(N)c(S(=O)(=O)O)c2)cc1S(=O)(=O)O

>  <assigned_label>
False

$$$$
>  <compound>
C=C(C(N)=O)C(N)C(=O)O (stereo unspecified)

>  <assigned_label>
False

$$$$
>  <compound>
Nc1ccc(Oc2ccccc2)c(Cl)c1

>  <assigned_label>
False

$$$$
>  <compound>
O=[N+]([O-])/C(=C/c1ccccc1)c1ccccc1

>  <assigned_label>
False

$$$$
>  <compound>
O=[N+]([O-])c1cc(-c2ccccc2)c(O)c([N+](=O)[O-])c1

>  <assigned_label>
False

$$$$
>  <compound>
O=C1C=CC(O)=CC1=P(c1ccccc1)(c1ccccc1)c1ccccc1

>  <assigned_label>
False

$$$$
